tested on: ATP; assay: switch fluorescence ratio, 500 uM ATP over buffer (Cy3 cluster intensity, sum of 5 cycles each) (fold (ratio)); higher = stronger signal-on switching upon ATP binding; sequences stand for … in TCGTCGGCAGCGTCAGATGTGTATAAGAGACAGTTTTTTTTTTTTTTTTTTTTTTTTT…TC; conditions: aptamer strand: ATP DNA aptamer (quencher-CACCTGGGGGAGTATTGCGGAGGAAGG + anchor), 100 nM annealed; ATP concentration: 500 uM;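 further: ATP exposure 15 min at 22 °C before imaging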
Quick list: switch fluorescence ratio per entry.
Give the value as a plain number.

Worked cases, switch fluorescence ratio given:
> print(dat)
   residue.string  experimental.target  recorded.number
1      GGGTCACTGG                  ATP            0.976
2      AAGCGAGGGG                  ATP             1.03
3      AATGTTCTGG                  ATP             0.99
4      AGGGGGAGGC                  ATP             1.01
5      TTAGAGGGGG                  ATP             1.01

INPUT: Sample ATGGATTTAG — what was its switch fluorescence ratio?
OUTPUT: 1.01

INPUT: Please do the same for GTAATTTTTC as well.
OUTPUT: 1.01

INPUT: Could you do the same for CATAGGGGGG , please?
OUTPUT: 0.988

----------
tested on: ATP; assay: switch fluorescence ratio, 500 uM ATP over buffer (Cy3 cluster intensity, sum of 5 cycles each) (fold (ratio)); higher = stronger signal-on switching upon ATP binding; sequences stand for … in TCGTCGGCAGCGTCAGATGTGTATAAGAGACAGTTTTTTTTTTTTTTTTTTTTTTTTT…TC; details: aptamer strand: ATP DNA aptamer (quencher-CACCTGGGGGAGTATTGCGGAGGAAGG + anchor), 100 nM annealed; ATP concentration: 500 uM;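 further: ATP exposure 15 min at 22 °C before imaging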
switch fluorescence ratio by entry:

Worked cases, answers included:
> print(dat)
   residue.string  experimental.target          property.measured  result
1      CCTTGAATCG                  ATP  switch fluorescence ratio   0.978
2      TAATGCCAGG                  ATP  switch fluorescence ratio    1.09
3      TTAGTTTCTA                  ATP  switch fluorescence ratio   0.994

Let us examine a further case.
INPUT: Which measured switch fluorescence ratio value corresponds to CTGGTATGGG ?
OUTPUT: 1.01

----------
test system: ATP; experiment: switch fluorescence ratio, 500 uM ATP over buffer (Cy3 cluster intensity, sum of 5 cycles each) (fold (ratio)); higher = stronger signal-on switching upon ATP binding; sequences stand for … in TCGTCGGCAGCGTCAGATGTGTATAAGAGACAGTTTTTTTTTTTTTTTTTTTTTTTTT…TC; settings: aptamer strand: ATP DNA aptamer (quencher-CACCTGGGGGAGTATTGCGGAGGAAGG + anchor), 100 nM annealed; ATP concentration: 500 uM;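 further: ATP exposure 15 min at 22 °C before imaging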
Some sequences, each annotated with its measured switch fluorescence ratio.
# answer = number (no unit)

INPUT: Value wanted: switch fluorescence ratio (ATP) of entry AAGGTTGTTG
OUTPUT: 1

INPUT: Param item: TCATGTTAAA
OUTPUT: 0.986

INPUT: Input GGTCAAACCC
OUTPUT: 1.03

INPUT: Also check TCTAAAGGAT
OUTPUT: 1.01

INPUT: Next entry: CGGAAAGTGT
OUTPUT: 0.996

INPUT: Try this sequence next: TATTTGTTTG
OUTPUT: 0.984

INPUT: Would you mind doing GACAATGGTT as well?
OUTPUT: 1
